Target: T1, recombinant receptor human IL-10Ra protein (human, UniProt Q13651 22-235)
T1 construct: Interleukin-10 receptor subunit alpha, human, recombinant; also called IL-10 receptor
T1 sequence (looked up): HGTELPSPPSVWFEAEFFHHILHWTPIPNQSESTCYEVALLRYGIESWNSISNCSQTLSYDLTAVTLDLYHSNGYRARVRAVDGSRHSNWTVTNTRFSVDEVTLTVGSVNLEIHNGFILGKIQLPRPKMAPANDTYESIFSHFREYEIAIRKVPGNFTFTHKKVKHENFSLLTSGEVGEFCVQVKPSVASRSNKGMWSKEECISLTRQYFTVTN
Test: BLI; ForteBio Octet RED96e, streptavidin biosensors loaded with 10 μg/mL recombinant human IL-10Ra (150 s); peptides at 3.12-100.0 μM, association 120 s; dissociation 120 s in PBS with 0.05% Tween20
Conditions: both partners purified
measurement_label: Kd (µM)

[[record]]
binder = "NMLRDLRDAFSRVKTFFQMK (truncation of NM25 (five C-terminal residues removed); stretch of human IL-10; source: synthetic peptide (GeneMark, GMbiolab Co., solid-phase)) [NK20 peptide]"
measurement_label = "Kd"
relation_sign = "="
value_observed = 21.4

[[record]]
binder = "NMLRDLRDAFSRVKTFFQMKDQLDN (human IL-10; also called original peptide; source: synthetic peptide (GeneMark, GMbiolab Co., solid-phase)) [NM25 peptide]"
measurement_label = "Kd"
relation_sign = "="
value_observed = 41

[[record]]
binder = "Human interleukin-10 (IL-10) (ligand, UniProt P22301 19-178, looked up, Interleukin-10, human; the methods of the BLI describe only the peptides as analytes; also called IL-10 cytokine) SPGQGTQSENSCTHFPGNLPNMLRDLRDAFSRVKTFFQMKDQLDNLLLKESLLEDFKGYLGCQALSEMIQFYLEEVMPQAENQDPDIKAHVNSLGENLKTLRLRLRRCHRFLPCENKSKAVEQVKNAFNKLQEKGIYKAMSEFDIFINYIEAYMTMKIRN"
measurement_label = "Kd"
relation_sign = "<"
value_observed = "1e-06"

[[record]]
binder = "NMLRNLRNAFSRVKTFFQMK (NK20 with two Asp replaced by Asn; stretch of human IL-10; source: synthetic peptide (GeneMark, GMbiolab Co., solid-phase)) [NK20a peptide]"
measurement_label = "Kd"
relation_sign = "="
value_observed = 11.2


// provenance: paper PMC10724200
